Assign Kd to each entry below.
ASSAY TARGET: FABP4 (Homo sapiens)
Construct: made in house
Sequence (P15090 whole entry, species assumed): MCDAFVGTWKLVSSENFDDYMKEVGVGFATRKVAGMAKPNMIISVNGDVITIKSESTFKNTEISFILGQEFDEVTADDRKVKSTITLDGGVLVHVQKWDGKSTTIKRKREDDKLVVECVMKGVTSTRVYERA
TEST DETAILS: FABP binding assay by fluorescence titration (ANS competition)
CONDITION DETAILS: fluorescence competition with ANS; read-out: FABP4 binding
Answer in nM, number only, no unit symbol.

q: Output Kd of CC(C)Oc1cc(NC(=O)CSCC(=O)O)c(Cl)cc1Cl
a: 66

q: Provide Kd value for the following compound: CC(C)Oc1cc(NC(=O)CC(C)(C)CC(=O)O)c(Cl)cc1Cl
a: 90

q: Assign Kd to the following record: CC(C)Oc1cc(NC(=O)CCCC(=O)O)c(Cl)cc1Cl
a: 218

q: Indicate its recorded Kd; the compound in question is CC(C)Oc1cc(NC(=O)COCC(=O)O)c(Cl)cc1Cl
a: 242

q: Specify Kd for CC(C)Oc1cc(NC(=O)C(C)SC(C)C(=O)O)c(Cl)cc1Cl (stereo not shown) and stop.
a: 286

q: Specify Kd for CC(C)Oc1cc(NC(=O)C2CCC(C(=O)O)S2)c(Cl)cc1Cl (stereo not shown) and stop.
a: 48

q: Indicate its recorded Kd; the compound in question is CC(C)Oc1cc(NC(=O)C2CCC(C(=O)O)O2)c(Cl)cc1Cl (stereo not shown)
a: 116

q: Return value of Kd for input CC(C)Oc1cc(NC(=O)CSC(C)C(=O)O)c(Cl)cc1Cl (stereo not shown) , no commentary.
a: 116

q: Give the measured Kd for CC(C)Oc1cc(NC(=O)CSC(C)(C)C(=O)O)c(Cl)cc1Cl
a: 97

q: Recall and state the measured Kd for CC(C)Oc1cc(NC(=O)CC2(CC(=O)O)CCCC2)c(Cl)cc1Cl .
a: 78
